Attribution: the RNAGym collection of RNA variant scans (doi:10.7554/elife.90254)

B1: LINE1-full (parent)
chain: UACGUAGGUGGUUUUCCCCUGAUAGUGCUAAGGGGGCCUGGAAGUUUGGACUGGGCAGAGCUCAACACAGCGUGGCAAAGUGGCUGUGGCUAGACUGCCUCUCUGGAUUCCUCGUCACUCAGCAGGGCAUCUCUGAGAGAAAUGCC

variants of: B1; test: self-cleavage, relative activity (ratio to wild type); higher = more cleavage; in vitro, sequencing; the parent is a self-cleaving ribozyme
self-cleavage overview
I'd appreciate a reply containing only the number, no unit.

Alteration	self-cleavage
U26C A79G	1.01
C71U G75A	0.59

We now examine a further variant.
Give recorded self-cleavage. U5C C18G
0.99
